experimental system: HLA-A*30:01
experiment summary: IEDB peptide-MHC binding, purified MHC/competitive/fluorescence; filed as Kd, often an IC50 or EC50 that approximates it; bounds were set here for any values at or beyond the usual limits of such assays
assay setup: source organism: Mycobacterium leprae
pKd: −log10 of the molar value.
metric: pKd

residues | numeric result
TVGYMYIMK | 7.31

====

experimental system: HLA-B*15:01
experiment summary: IEDB peptide-MHC binding, purified MHC/competitive/fluorescence; filed as Kd, often an IC50 or EC50 that approximates it; bounds were set here for any values at or beyond the usual limits of such assays
assay setup: source organism: Orthohantavirus negraense
metric: Kd

residues | experimental system | result
SLLFREVWK | HLA-B*15:01 | ≥ 20 µM
